Experiment: in vitro
Conditions: human, hbss
value type: MNTC at 2 h (µg/mL)
# number only, unit µg/mL dropped from output

Suppose we examine the compound C[C@H](CCC(=O)NCCS(=O)(=O)O)[C@H]1CC[C@H]2[C@@H]3CC[C@@H]4C[C@H](O)CC[C@]4(C)[C@H]3C[C@H](O)[C@]12C [Taurodeoxycholate, sodium taurodeoxycholate] ; what MNTC at 2 h value has been reported? 313

Suppose we examine the compound C[C@H](CCC(=O)NCC(=O)O)[C@H]1CC[C@H]2[C@@H]3CC[C@@H]4C[C@H](O)CC[C@]4(C)[C@H]3C[C@H](O)[C@]12C [Glycodeoxycholate, sodium glycodeoxycholate] ; what MNTC at 2 h value has been reported? 313

====

Assay: in vitro
Settings: human, hbss
For each entry below, report its MNTC at 2 h value.
# number only, unit µg/mL dropped from output

Suppose we examine the compound C[C@H](CCC(=O)NCCS(=O)(=O)O)[C@H]1CC[C@H]2[C@@H]3CC[C@@H]4C[C@H](O)CC[C@]4(C)[C@H]3C[C@H](O)[C@]12C [Taurodeoxycholate, sodium taurodeoxycholate] ; what MNTC at 2 h value has been reported? 313

Suppose we examine the compound C[C@H](CCC(=O)NCC(=O)O)[C@H]1CC[C@H]2[C@@H]3CC[C@@H]4C[C@H](O)CC[C@]4(C)[C@H]3C[C@H](O)[C@]12C [Glycodeoxycholate, sodium glycodeoxycholate] ; what MNTC at 2 h value has been reported? 313
